Tested on: KRAS-mutant PDC complex spheroid viability
assay.protocol: Anticancer human tumor 186277-243-T-J2-PDC patient-derived colon adenocarcinoma cell line growth inhibition [KRAS2]
condition.context: second compound 1 µM; first compound 0.01 µM; stronger effect = lower value
outcome.measure: viability, T/C (%)
Answer with a number only, understood to be in %.

# annotated cases, reported viability, T/C shown
compound	units.text	readout.number
CC(=O)OC12COC1CC(O)C1(C)C(=O)C(O)C3=C(C)C(OC(=O)C(O)C(NC(=O)OC(C)(C)C)c4ccccc4)CC(O)(C(OC(=O)c4ccccc4)C21)C3(C)C (stereo not given) + CC1OCC2(CCN(c3cnc(Sc4ccnc(N)c4Cl)c(N)n3)CC2)C1N	%	4.63
CN(C)C/C=C/C(=O)Nc1cc2c(Nc3ccc(F)c(Cl)c3)ncnc2cc1O[C@H]1CCOC1 + CNCc1ccccc1-c1csc(C(C)Nc2nc(C)nc3cc(OC)c(OC)cc23)c1	%	120
CC(=O)Nc1cccc(-n2c(=O)n(C3CC3)c(=O)c3c(Nc4ccc(I)cc4F)n(C)c(=O)c(C)c32)c1 + CNCc1ccccc1-c1csc(C(C)Nc2nc(C)nc3cc(OC)c(OC)cc23)c1	%	1.15

Supply reported viability, T/C belonging to this compound: CCN1CCN(Cc2ccc(Nc3ncc(F)c(-c4cc(F)c5nc(C)n(C(C)C)c5c4)n3)nc2)CC1 + CNCc1ccccc1-c1csc(C(C)Nc2nc(C)nc3cc(OC)c(OC)cc23)c1 85.5

Supply reported viability, T/C belonging to this compound: CC(=O)Nc1cccc(-n2c(=O)n(C3CC3)c(=O)c3c(Nc4ccc(I)cc4F)n(C)c(=O)c(C)c32)c1 + C=CC(=O)N1CCN(c2nc(OCC3CCCN3C)nc3c2CCN(c2cccc4cccc(C)c24)C3)CC1CC#N 1.12

----------
Test system: KRAS-mutant PDC complex spheroid viability
assay.protocol: Anticancer human tumor 186277-243-T-J2-PDC cell line growth inhibition [KRAS2];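 on viability, T/C: viability read after seven days of compound exposure; 100% = DMSO vehicle-treated spheroids so lower means less viable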
condition.context: second compound 0.0316 µM; first compound 1 µM; stronger effect = lower value
outcome.measure: viability, T/C (%)
Answer with a number only, understood to be in %.

# annotated cases, reported viability, T/C shown
compound	outcome.measure	readout.number
Cn1nccc1Nc1nccc(-c2cc3c(s2)C(C)(C)N(CCN2CCOCC2)C3=O)n1 + C=CC(=O)N1CCN(c2nc(OCC3CCCN3C)nc3c2CCN(c2cccc4cccc(C)c24)C3)CC1CC#N	viability, T/C	5.23
CC(=O)OC12COC1CC(O)C1(C)C(=O)C(O)C3=C(C)C(OC(=O)C(O)C(NC(=O)OC(C)(C)C)c4ccccc4)CC(O)(C(OC(=O)c4ccccc4)C21)C3(C)C (centres undefined) + C=CC(=O)N1CCN(c2nc(OCC3CCCN3C)nc3c2CCN(c2cccc4cccc(C)c24)C3)CC1CC#N	viability, T/C	3.29
CC1(C)CCC(CN2CCN(c3ccc(C(=O)NS(=O)(=O)c4ccc(NCC5CCOCC5)c([N+](=O)[O-])c4)c(Oc4cnc5[nH]ccc5c4)c3)CC2)=C(c2ccc(Cl)cc2)C1 + C=CC(=O)N1CCN(c2nc(OCC3CCCN3C)nc3c2CCN(c2cccc4cccc(C)c24)C3)CC1CC#N	viability, T/C	117

We now examine a further compound.
Supply reported viability, T/C belonging to this compound: CC(C)NCC(C(=O)N1CCN(c2ncnc3c2C(C)CC3O)CC1)c1ccc(Cl)cc1 (centres undefined) + C=CC(=O)N1CCN(c2nc(OCC3CCCN3C)nc3c2CCN(c2cccc4cccc(C)c24)C3)CC1CC#N 37

----------
Tested on: KRAS-mutant PDC complex spheroid viability
assay.protocol: Anticancer human tumor 186277-243-T-J2-PDC cell line growth inhibition [KRAS2]; active means viability on the fitted dose curve at most 10% of control; inactive means the rest
condition.context: second compound 10 µM; first compound 0.0316 µM
Give one outcome, nothing more. List: yes (active), no (inactive)

Completed entries (count: 4):
molecule	category.label
Cn1ncnc1[C@H]1c2n[nH]c(=O)c3cc(F)cc(c23)N[C@@H]1c1ccc(F)cc1 + CC1OCC2(CCN(c3cnc(Sc4ccnc(N)c4Cl)c(N)n3)CC2)C1N	no
CN(C)C/C=C/C(=O)Nc1cc2c(Nc3ccc(F)c(Cl)c3)ncnc2cc1O[C@H]1CCOC1 + COc1cc2nc(C)nc(NC(C)c3cc(N)cc(C(F)(F)F)c3)c2cc1OC1CCOC1	no
CC(=O)OC12COC1CC(O)C1(C)C(=O)C(O)C3=C(C)C(OC(=O)C(O)C(NC(=O)OC(C)(C)C)c4ccccc4)CC(O)(C(OC(=O)c4ccccc4)C21)C3(C)C (stereo unspecified) + COc1cc2nc(C)nc(NC(C)c3cc(N)cc(C(F)(F)F)c3)c2cc1OC1CCOC1	yes
CC(C)NCC(C(=O)N1CCN(c2ncnc3c2C(C)CC3O)CC1)c1ccc(Cl)cc1 (stereo unspecified) + COc1cc2nc(C)nc(NC(C)c3cc(N)cc(C(F)(F)F)c3)c2cc1OC1CCOC1	no

Identify the outcome logged in this assay for the molecule shown: Cn1nccc1Nc1nccc(-c2cc3c(s2)C(C)(C)N(CCN2CCOCC2)C3=O)n1 + C=CC(=O)N1CCN(c2nc(=O)n(-c3c(C)ccnc3C(C)C)c3nc(-c4c(O)cccc4F)c(F)cc23)C(C)C1 no

Identify the outcome logged in this assay for the molecule shown: CN(C)C/C=C/C(=O)Nc1cc2c(Nc3ccc(F)c(Cl)c3)ncnc2cc1O[C@H]1CCOC1 + CC1OCC2(CCN(c3cnc(Sc4ccnc(N)c4Cl)c(N)n3)CC2)C1N no

Identify the outcome logged in this assay for the molecule shown: CCN1CCN(Cc2ccc(Nc3ncc(F)c(-c4cc(F)c5nc(C)n(C(C)C)c5c4)n3)nc2)CC1 + CNCc1ccccc1-c1csc(C(C)Nc2nc(C)nc3cc(OC)c(OC)cc23)c1 yes

Identify the outcome logged in this assay for the molecule shown: COc1cc(Nc2ncc3c(n2)-c2ccc(Cl)cc2C(c2c(F)cccc2OC)=NC3)ccc1C(=O)O + CC1OCC2(CCN(c3cnc(Sc4ccnc(N)c4Cl)c(N)n3)CC2)C1N no

Identify the outcome logged in this assay for the molecule shown: O=C(c1cc(Cc2n[nH]c(=O)c3ccccc23)ccc1F)N1CCN(C(=O)C2CC2)CC1 + COc1cc2nc(C)nc(NC(C)c3cc(N)cc(C(F)(F)F)c3)c2cc1OC1CCOC1 no

Identify the outcome logged in this assay for the molecule shown: CC1COCCN1c1cc(-c2ccnn2C)c2ccnc(-c3ccn[nH]3)c2n1 (stereo unspecified) + CNCc1ccccc1-c1csc(C(C)Nc2nc(C)nc3cc(OC)c(OC)cc23)c1 yes

Identify the outcome logged in this assay for the molecule shown: Cn1nccc1Nc1nccc(-c2cc3c(s2)C(C)(C)N(CCN2CCOCC2)C3=O)n1 + COc1cc2nc(C)nc(NC(C)c3cc(N)cc(C(F)(F)F)c3)c2cc1OC1CCOC1 no

Identify the outcome logged in this assay for the molecule shown: COc1cc2nccc(Oc3ccc(NC(=O)C4(C(=O)Nc5ccc(F)cc5)CC4)cc3)c2cc1OC + CNCc1ccccc1-c1csc(C(C)Nc2nc(C)nc3cc(OC)c(OC)cc23)c1 yes

Identify the outcome logged in this assay for the molecule shown: Cn1ncnc1[C@H]1c2n[nH]c(=O)c3cc(F)cc(c23)N[C@@H]1c1ccc(F)cc1 + CNCc1ccccc1-c1csc(C(C)Nc2nc(C)nc3cc(OC)c(OC)cc23)c1 yes

----------
In this section, each of the compounds is paired with its reported pIC50.
Test system: KRAS-mutant PDC complex spheroid viability
assay.protocol: Anticancer human tumor 186277-243-T-J2-PDC cell line growth inhibition [KRAS2]
condition.context: curve of first compound; second compound 10 µM
Value format note: pIC50 is -log10 of concentration (mol/L); just state the number.

# annotated cases, reported pIC50 shown
compound	pIC50
CN(C)C/C=C/C(=O)Nc1cc2c(Nc3ccc(F)c(Cl)c3)ncnc2cc1O[C@H]1CCOC1 + CC1OCC2(CCN(c3cnc(Sc4ccnc(N)c4Cl)c(N)n3)CC2)C1N	7.56
CCNC(=O)CC1N=C(c2ccc(Cl)cc2)c2cc(OC)ccc2-n2c(C)nnc21 (stereo not given) + CC1OCC2(CCN(c3cnc(Sc4ccnc(N)c4Cl)c(N)n3)CC2)C1N	7.29

Supply reported pIC50 belonging to this compound: COC(=O)c1ccc2c(C(=Nc3ccc(N(C)C(=O)CN4CCN(C)CC4)cc3)c3ccccc3)c(O)[nH]c2c1 + COc1cc2nc(C)nc(NC(C)c3cc(N)cc(C(F)(F)F)c3)c2cc1OC1CCOC1 6.33

----------
System: KRAS-mutant PDC complex spheroid viability
assay.protocol: Anticancer human tumor 186277-243-T-J2-PDC cell line growth inhibition [KRAS2];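 on viability, T/C: viability read after seven days of compound exposure; 100% = DMSO vehicle-treated spheroids so lower means less viable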
condition.context: second compound 0.316 µM; first compound 0.01 µM; stronger effect = lower value
outcome.measure: viability, T/C (%)
Answer with a number only, understood to be in %.

# annotated cases, reported viability, T/C shown
compound	viability, T/C (%)
CN(C)C/C=C/C(=O)Nc1cc2c(Nc3ccc(F)c(Cl)c3)ncnc2cc1O[C@H]1CCOC1 + C=CC(=O)N1CCN(c2nc(=O)n(-c3c(C)ccnc3C(C)C)c3nc(-c4c(O)cccc4F)c(F)cc23)C(C)C1	98.4
CCN1CCN(Cc2ccc(Nc3ncc(F)c(-c4cc(F)c5nc(C)n(C(C)C)c5c4)n3)nc2)CC1 + COc1cc2nc(C)nc(NC(C)c3cc(N)cc(C(F)(F)F)c3)c2cc1OC1CCOC1	93.6
CC(=O)OC12COC1CC(O)C1(C)C(=O)C(O)C3=C(C)C(OC(=O)C(O)C(NC(=O)OC(C)(C)C)c4ccccc4)CC(O)(C(OC(=O)c4ccccc4)C21)C3(C)C (stereo not given) + CC1OCC2(CCN(c3cnc(Sc4ccnc(N)c4Cl)c(N)n3)CC2)C1N	2.83
CC(=O)Nc1cccc(-n2c(=O)n(C3CC3)c(=O)c3c(Nc4ccc(I)cc4F)n(C)c(=O)c(C)c32)c1 + CC1OCC2(CCN(c3cnc(Sc4ccnc(N)c4Cl)c(N)n3)CC2)C1N	3.34

We now examine a further compound.
Supply reported viability, T/C belonging to this compound: CN(C)C/C=C/C(=O)Nc1cc2c(Nc3ccc(F)c(Cl)c3)ncnc2cc1O[C@H]1CCOC1 + CC1OCC2(CCN(c3cnc(Sc4ccnc(N)c4Cl)c(N)n3)CC2)C1N 104

// provenance: PubChem BioAssay AID1963875
